# system: Feline_OSMR_hlgG1_Fc (feline)
# Sequence (chain, as listed by the source limits assumed, form in doubt): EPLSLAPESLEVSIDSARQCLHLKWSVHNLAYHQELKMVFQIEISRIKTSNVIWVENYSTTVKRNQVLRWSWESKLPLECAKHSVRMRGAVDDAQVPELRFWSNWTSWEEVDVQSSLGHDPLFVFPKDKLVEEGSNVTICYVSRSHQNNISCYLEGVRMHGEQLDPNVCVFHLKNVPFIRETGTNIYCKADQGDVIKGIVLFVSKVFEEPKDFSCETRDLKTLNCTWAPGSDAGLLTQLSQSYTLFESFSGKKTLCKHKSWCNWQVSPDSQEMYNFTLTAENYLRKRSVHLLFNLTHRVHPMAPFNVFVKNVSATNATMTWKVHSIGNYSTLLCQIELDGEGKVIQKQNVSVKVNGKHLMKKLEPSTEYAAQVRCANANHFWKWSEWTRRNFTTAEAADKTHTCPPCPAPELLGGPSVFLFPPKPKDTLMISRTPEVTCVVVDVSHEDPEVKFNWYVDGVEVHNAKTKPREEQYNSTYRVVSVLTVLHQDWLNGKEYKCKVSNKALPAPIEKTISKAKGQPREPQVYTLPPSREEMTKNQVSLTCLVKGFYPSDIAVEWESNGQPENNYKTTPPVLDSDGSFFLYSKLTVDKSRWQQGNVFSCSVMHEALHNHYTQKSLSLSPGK
# assayInfo: SPR Biacore
endpointName: pKd
Field pKd (float): negative decimal logarithm of the concentration in molar.

Give its pKd value. Item: Mu_10F07_VL (SEQ ID NO: 41)_W96A (antibody, V domains shown) VH: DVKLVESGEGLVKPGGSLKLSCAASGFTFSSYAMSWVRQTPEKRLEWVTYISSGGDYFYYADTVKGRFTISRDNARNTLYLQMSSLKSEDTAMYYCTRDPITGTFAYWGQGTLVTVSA VL: DIQMTQTTSSLSASLGDRVTISCRASQDITNYLNWYQQKPDGTVKLLIYYTSTLHSGVPSRFSGSGSGTDFSLTISNLEQEDIATYFCQQGHMLPATFGGGTKLEIKR 8.15

Could you now consider this next binder?
Give its pKd value. Item: Mu_02D09_VL (SEQ ID NO: 33)_W94A (antibody, V domains shown) VH: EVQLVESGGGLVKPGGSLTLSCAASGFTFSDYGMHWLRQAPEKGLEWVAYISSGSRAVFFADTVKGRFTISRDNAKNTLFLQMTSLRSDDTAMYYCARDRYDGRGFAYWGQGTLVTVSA VL: DIVLTQSPATLSVTPGDSVSLSCRASQSISNNLHWYQQTSHESPRLLITYASQSISGIPSRFSGSGSGTDFTLSINSVETEDFGMYFCQQSNSAPLTFGAGTKLELKR 12.12
